- test-target: T1, IL-2 receptor βγ complex on pan T cells (human, UniProt P14784 27-551; P31785 23-369)
- T1 sequence (looked up) 1: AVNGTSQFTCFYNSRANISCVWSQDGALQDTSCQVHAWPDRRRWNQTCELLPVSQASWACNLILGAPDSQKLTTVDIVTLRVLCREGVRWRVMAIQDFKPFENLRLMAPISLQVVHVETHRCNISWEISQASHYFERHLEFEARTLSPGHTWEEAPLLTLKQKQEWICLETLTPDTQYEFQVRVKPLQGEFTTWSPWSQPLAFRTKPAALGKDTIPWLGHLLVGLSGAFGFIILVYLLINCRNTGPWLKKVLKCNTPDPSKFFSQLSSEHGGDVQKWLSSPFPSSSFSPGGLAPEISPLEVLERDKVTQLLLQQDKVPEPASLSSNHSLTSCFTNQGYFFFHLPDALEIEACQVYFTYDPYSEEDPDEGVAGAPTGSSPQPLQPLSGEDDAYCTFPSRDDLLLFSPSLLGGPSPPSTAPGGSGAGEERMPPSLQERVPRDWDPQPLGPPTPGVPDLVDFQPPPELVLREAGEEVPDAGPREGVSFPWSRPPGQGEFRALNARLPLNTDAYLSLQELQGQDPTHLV
- T1 sequence (looked up) 2: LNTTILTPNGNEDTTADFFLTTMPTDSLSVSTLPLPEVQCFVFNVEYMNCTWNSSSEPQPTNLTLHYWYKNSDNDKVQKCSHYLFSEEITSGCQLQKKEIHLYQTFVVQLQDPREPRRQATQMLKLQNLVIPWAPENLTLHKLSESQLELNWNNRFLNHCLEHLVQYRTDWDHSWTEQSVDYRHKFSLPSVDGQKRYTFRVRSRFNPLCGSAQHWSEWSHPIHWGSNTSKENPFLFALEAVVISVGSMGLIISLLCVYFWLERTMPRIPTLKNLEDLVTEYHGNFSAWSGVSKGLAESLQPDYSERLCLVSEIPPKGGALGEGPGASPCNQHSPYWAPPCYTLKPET
- test-summary: cell-based or functional assay
[ ]: non-standard residue; d: D form. Ygp = O-(8x polyethylene glycol-amino)-tyrosine; Yn3 = O-(9x polyethylene glycol-azido)-tyrosine; hSer = N[C@@H](CCO)C(=O)O; Nle = CCCC[C@H](N)C(=O)O
assay-metric: Average EC50, pSTAT5 assay in pan T cells, MMP2 cleaved molecule (nM)

binder: CMP-145, MMP2 cleaved (ligand, not fully specified (residue 23, bridges); also: Lys23 side chain bears KKPLGLAG (branched PEG) peptide cut by MMP2, remnants stay attached, cut site not given here) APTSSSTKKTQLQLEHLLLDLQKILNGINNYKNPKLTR[Nle]L[hSer][Yn3]KF[Ygp][Nle]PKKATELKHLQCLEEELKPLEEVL[hSer]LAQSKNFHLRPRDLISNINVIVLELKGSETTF[hSer]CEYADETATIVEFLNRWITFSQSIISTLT
numeric-readout: 1.43
